setupConditions: rat, in vivo, iv, 1 h
Description: Biodistribution in tumor of Fischer 344 rat bearing rat 9L cells at 20 uCi, iv after 120 mins
Please respond with reported Drug uptake for every item in the list.
Give bare numbers, in % ID/g.

OC[C@H]1O[C@@H](O)[C@H]([18F])[C@@H](O)[C@@H]1O
1.05
C[C@](N)(C[18F])C(=O)O.Cl
2.82
C[C@@](N)(C[18F])C(=O)O.Cl
1.82
CN[C@](C)(C[18F])C(=O)O.Cl
1.46

Now, please, on to the next compound.
Task: Tell me measured Drug uptake for CN[C@@](C)(C[18F])C(=O)O.Cl please.
Output: 2.64

* * *

Please respond with reported Drug uptake for every item in the list.
testMethodNotes: Biodistribution in testis of Fischer 344 rat bearing rat 9L cells at 20 uCi, iv after 60 mins
Type: ADME, organism-based
setupConditions: in vivo, 1 h
One number for each entry, in % ID/g.

Examples from the recorded data:
C[C@](N)(C[18F])C(=O)O.Cl
0.17
CN[C@@](C)(C[18F])C(=O)O.Cl
0.15
CN[C@](C)(C[18F])C(=O)O.Cl
0.13

Task: Tell me measured Drug uptake for C[C@@](N)(C[18F])C(=O)O.Cl please.
Output: 0.16

* * *

Please respond with reported Drug uptake for every item in the list.
System: Liver
testMethodNotes: Biodistribution in liver of Fischer 344 rat bearing rat 9L cells at 20 uCi, iv after 30 mins
Format: ADME, organism-based
setupConditions: in vivo, 0.5 h
One number for each entry, in % ID/g.

Go through the items and report each one's Drug uptake.
1. CN[C@](C)(C[18F])C(=O)O.Cl
2. CN[C@@](C)(C[18F])C(=O)O.Cl
3. C[C@](N)(C[18F])C(=O)O.Cl

Output:
0.71
0.61
0.6

Task: Find the measured Drug uptake of C[C@@](N)(C[18F])C(=O)O.Cl with Liver as test system.
Output: 0.61

* * *

Test system: Spleen
testMethodNotes: Biodistribution in spleen of Fischer 344 rat bearing rat 9L cells at 20 uCi, iv after 120 mins
Type: ADME, organism-based
setupConditions: in vivo, 2 h
Please respond with reported Drug uptake for every item in the list.

C[C@@](N)(C[18F])C(=O)O.Cl
0.51 % ID/g
CN[C@](C)(C[18F])C(=O)O.Cl
0.49 % ID/g
CN[C@@](C)(C[18F])C(=O)O.Cl
0.62 % ID/g

Now, please, on to the next molecule.
Task: Tell me measured Drug uptake for C[C@](N)(C[18F])C(=O)O.Cl please.
Output: 0.39 % ID/g

* * *

Test system: Bone
testMethodNotes: Biodistribution in bone of Fischer 344 rat bearing rat 9L cells at 20 uCi, iv after 30 mins
Format: ADME, organism-based, Bone element
setupConditions: in vivo, 0.5 h
readoutKind: Drug uptake (% ID/g)
Give bare numbers, in % ID/g.

CN[C@@](C)(C[18F])C(=O)O.Cl
0.48
CN[C@](C)(C[18F])C(=O)O.Cl
0.32
C[C@@](N)(C[18F])C(=O)O.Cl
0.3

Now, please, on to the next molecule.
Task: Find the measured Drug uptake of C[C@](N)(C[18F])C(=O)O.Cl with Bone as test system.
Output: 0.23

* * *

Please respond with reported Ratio for every item in the list.
testMethodNotes: Biodistribution in tumor of Fischer 344 rat bearing rat 9L cells at 20 uCi, iv after 30 mins
Type: ADME, organism-based, Neoplasm
setupConditions: in vivo, 0.5 h
One number for each entry.

C[C@](N)(C[18F])C(=O)O.Cl
38.2
CN[C@](C)(C[18F])C(=O)O.Cl
30.2
C[C@@](N)(C[18F])C(=O)O.Cl
21.1

Task: Tell me measured Ratio for CN[C@@](C)(C[18F])C(=O)O.Cl please.
Output: 53.2

* * *

System: 9L
testMethodNotes: Cellular uptake in rat 9L cells at 5 uCi measured […] by gamma counting
Format: ADME, cell-based
readoutKind: Drug uptake (%ID)
Answers are plain numbers, in %ID.

Examples from the recorded data:
CN[C@](C)(CF)C(=O)O.Cl
3.87
C[C@](N)(CF)C(=O)O.Cl
13.06
C[C@@](N)(CF)C(=O)O.Cl
4.77

Now, please, on to the next compound.
Task: Tell me measured Drug uptake for CN[C@@](C)(CF)C(=O)O.Cl please.
Output: 7.08

* * *

Tested on: Spleen
testMethodNotes: Biodistribution in spleen of Fischer 344 rat bearing rat 9L cells at 20 uCi, iv after 30 mins
Type: ADME, organism-based
setupConditions: in vivo, 0.5 h
readoutKind: Drug uptake (% ID/g)
One number for each entry, in % ID/g.

Examples from the recorded data:
CN[C@](C)(C[18F])C(=O)O.Cl
0.51
C[C@](N)(C[18F])C(=O)O.Cl
0.72
CN[C@@](C)(C[18F])C(=O)O.Cl
0.63

Now, please, on to the next compound.
Task: Tell me measured Drug uptake for C[C@@](N)(C[18F])C(=O)O.Cl please.
Output: 0.73

* * *

Test system: 9L
testMethodNotes: Cellular uptake in rat 9L cells assessed as inhibition of uptake at 5 uCi measured […] by gamma counting in presence of system ASC transport inhibitor ACS relative to control
Type: ADME, cell-based
Parameters: scale not given: the % may be the effect or the level left
Please respond with reported Activity for every item in the list.

Examples from the recorded data:
CN[C@@](C)(CF)C(=O)O.Cl
89%
C[C@](N)(CF)C(=O)O.Cl
87%

Go through the items and report each one's Activity.
1. CN[C@](C)(CF)C(=O)O.Cl
2. C[C@@](N)(CF)C(=O)O.Cl

Output:
1: 58%; 2: 72%

* * *

System: Liver
testMethodNotes: Biodistribution in liver of Fischer 344 rat bearing rat 9L cells at 20 uCi, iv after 120 mins
Assay type: ADME, organism-based
setupConditions: in vivo, 2 h
readoutKind: Drug uptake (% ID/g)
Answers are plain numbers, in % ID/g.

Examples from the recorded data:
C[C@](N)(C[18F])C(=O)O.Cl
0.32
CN[C@@](C)(C[18F])C(=O)O.Cl
0.4
CN[C@](C)(C[18F])C(=O)O.Cl
0.6

Task: Tell me measured Drug uptake for C[C@@](N)(C[18F])C(=O)O.Cl please.
Output: 0.42

* * *

Please respond with reported Drug uptake for every item in the list.
testMethodNotes: Biodistribution in testis of Fischer 344 rat bearing rat 9L cells at 20 uCi, iv after 30 mins
Type: ADME, organism-based
setupConditions: in vivo, 0.5 h
Give bare numbers, in % ID/g.

Examples from the recorded data:
C[C@](N)(C[18F])C(=O)O.Cl
0.15
CN[C@](C)(C[18F])C(=O)O.Cl
0.13
C[C@@](N)(C[18F])C(=O)O.Cl
0.19

Task: Tell me measured Drug uptake for CN[C@@](C)(C[18F])C(=O)O.Cl please.
Output: 0.15

* * *

Please respond with reported Drug uptake for every item in the list.
System: Heart
testMethodNotes: Biodistribution in heart of Fischer 344 rat bearing rat 9L cells at 20 uCi, iv after 120 mins
Type: ADME, organism-based
setupConditions: in vivo, 2 h

Examples from the recorded data:
C[C@](N)(C[18F])C(=O)O.Cl
0.23 % ID/g
CN[C@](C)(C[18F])C(=O)O.Cl
0.21 % ID/g
C[C@@](N)(C[18F])C(=O)O.Cl
0.34 % ID/g

Now, please, on to the next compound.
Task: Tell me measured Drug uptake for CN[C@@](C)(C[18F])C(=O)O.Cl please.
Output: 0.22 % ID/g

* * *

Test system: 9L
testMethodNotes: Cellular uptake in rat 9L cells assessed as inhibition of uptake at 5 uCi measured […] by gamma counting in presence of system L transport inhibitor BCH relative to control
Assay type: ADME, cell-based
Design: scale not given: the % may be the effect or the level left
Please respond with reported Activity for every item in the list.
Give bare numbers, in %.

Go through the items and report each one's Activity.
1. CN[C@](C)(CF)C(=O)O.Cl
2. C[C@](N)(CF)C(=O)O.Cl
3. C[C@@](N)(CF)C(=O)O.Cl
4. CN[C@@](C)(CF)C(=O)O.Cl

Output:
1. 29
2. 67
3. 75
4. 54
